We begin with a simple list: items and their reported cytotoxicity at 70.5 h.
assay: Human HepG2 cell viability assay in 384 well format; assay type: toxicity, cell-based; parameters: dose 125 nL, time 70.5 hour; concentration not given beside the values; conditions: HepG2 cells, read-out: Inhibition
endpointLabel: cytotoxicity at 70.5 h (%)

[[record]]
compound = "COC(=O)c1cccn1C1CCN(CC(=O)NC2CCCCC2)CC1"
numericvalue = -8.68

[[record]]
compound = "CCS(=O)(=O)N1CC[C@@H]2[C@H](CC1)N(Cc1cccc(C)n1)CCS2(=O)=O"
numericvalue = 2.24

[[record]]
compound = "Cc1c(C(C)NC2CCCC2)cnn1-c1ccc(F)cc1F (stereo not drawn)"
numericvalue = 0.586

[[record]]
compound = "CC(C)c1csc(C2CCCN(C(=O)c3ccc(=O)n(C)c3)C2)n1 (stereo not drawn)"
numericvalue = -0.564

[[record]]
compound = "Cc1ccc(CNC(=O)c2cc(Cn3ccnc3C(C)C)[nH]n2)o1"
numericvalue = 20.2

[[record]]
compound = "Cn1cc(NC(=O)N2CCC2c2ccccc2)ccc1=O (stereo not drawn)"
numericvalue = -4.87

[[record]]
compound = "Cc1occc1C(=O)N1CCC[C@]2(C[C@@H](OCc3ccncc3)CO2)C1"
numericvalue = 6.49

[[record]]
compound = "O=C(c1ccco1)N1C[C@H]2CCCN(CC3CCOCC3)[C@H]2C1"
numericvalue = -7.8

[[record]]
compound = "CS(=O)(=O)c1ccc(CNc2nccc(C(F)(F)F)n2)cc1"
numericvalue = -1.16

[[record]]
compound = "COc1ccc(NC(=O)NC(C)c2nc[nH]n2)cc1 (stereo not drawn)"
numericvalue = -0.0192

[[record]]
compound = "CCCN(CCC)C(=O)CN(C)C1CCc2ccccc21 (stereo not drawn)"
numericvalue = -7.56

[[record]]
compound = "Cc1nc(NC(=O)C2CCCN(C(N)=O)C2)sc1-c1ccccc1 (stereo not drawn)"
numericvalue = 28.7

[[record]]
compound = "CCn1cncc1CNc1ccc(-c2nc(CC(C)C)no2)cn1"
numericvalue = 2.85

[[record]]
compound = "COCCNC(=O)c1cc(S(=O)(=O)N2CCCC2)cs1"
numericvalue = 14.3

[[record]]
compound = "Cc1nc(C(C)C)sc1C(=O)N(C)Cc1cnn(C)c1"
numericvalue = 14.2

[[record]]
compound = "O=C(NCCC1=CCCCC1)C1CCCN(c2ccc3nncn3n2)C1 (stereo not drawn)"
numericvalue = 9.17

[[record]]
compound = "Cc1ncccc1CNCC1CCN(CC(C)O)CC1 (stereo not drawn)"
numericvalue = -4.39

[[record]]
compound = "Cc1nsc(NCCNS(=O)(=O)c2cccc(Cl)c2)n1"
numericvalue = 9.23

[[record]]
compound = "CO[C@@H]1CCN(C2CCOCC2)C[C@@H]1Cc1ccccc1"
numericvalue = -11.8

[[record]]
compound = "Cc1nn(C)c(C)c1CCC(=O)OCC(=O)N1CCc2sccc2C1"
numericvalue = 20.5

[[record]]
compound = "COc1cccc(C2CCCN2Cc2nc3c(cnn3C)c(=O)[nH]2)c1 (stereo not drawn)"
numericvalue = -1.55

[[record]]
compound = "CO[C@H]1CN(C(C)C)C[C@@H]1NC(=O)Nc1ccc2oc(C)cc2c1"
numericvalue = 26.1

[[record]]
compound = "CC(C)c1cc(CN(C)C(=O)CN2CCC(C(N)=O)CC2)no1"
numericvalue = -14.7

